Target: cytochrome c oxidase (CcO) purified from bovine heart (Bos taurus, UniProt P00396+P68530)
Construct: Cytochrome oxidase was isolated from bovine heart mitochondria; from tissue; host or cells: bovine heart mitochondria
Assay: Peroxidase activity of CcO (o-dianisidine peroxidation by H2O2)
Assay type: biochemical
Settings: read-out: Ki for inhibition of CcO peroxidase activity
Protocol: Peroxidase activity of CcO was assayed as described by Vygodina and Konstantinov by following spectrophotometrically peroxidation of 0.2 mM o-dianisidine at 432 nm minus 580 nm in a dual-wavelength SLM Aminco DW-2000 spectrophotometer (USA). The reaction mixture contained 0.6 µM CcO in the aerobic basic medium supplemented with different concentrations of DM. No o-dianisidine oxidase activity was observed and the peroxidase reaction was initiated by addition of 4 mM H2O2.
ATTRIBUTE_MEASURED: Ki

// query Any idea what its Ki is? The molecule is C=C1CC[C@H](O)C/C1=C/C=C1\CCC[C@]2(C)[C@@H]([C@H](C)CCCC(C)C)CC[C@@H]12 [Cholecalciferol (vitamine D3), Cholecalciferol]
// result ~200 µM
